assay: Anticancer activity against human ME-1 cells; assay type: functional, cell-based
RECORDED METRIC: IC50 (nM)
# unit: nM | format: bare number

Exercise: Identify the reported IC50 for the following entry. O=C(/C=C\n1cnc(-c2cc(C(F)(F)F)cc(C(F)(F)F)c2)n1)NNc1cnccn1 [SELINEXOR]
Solution: 34

###

target: Phosphatidylinositol 4,5-bisphosphate 3-kinase catalytic subunit gamma isoform (Homo sapiens); assay: Inhibition of PI3Kgamma (unknown origin)
Sequence (P48736 whole entry, canonical isoform): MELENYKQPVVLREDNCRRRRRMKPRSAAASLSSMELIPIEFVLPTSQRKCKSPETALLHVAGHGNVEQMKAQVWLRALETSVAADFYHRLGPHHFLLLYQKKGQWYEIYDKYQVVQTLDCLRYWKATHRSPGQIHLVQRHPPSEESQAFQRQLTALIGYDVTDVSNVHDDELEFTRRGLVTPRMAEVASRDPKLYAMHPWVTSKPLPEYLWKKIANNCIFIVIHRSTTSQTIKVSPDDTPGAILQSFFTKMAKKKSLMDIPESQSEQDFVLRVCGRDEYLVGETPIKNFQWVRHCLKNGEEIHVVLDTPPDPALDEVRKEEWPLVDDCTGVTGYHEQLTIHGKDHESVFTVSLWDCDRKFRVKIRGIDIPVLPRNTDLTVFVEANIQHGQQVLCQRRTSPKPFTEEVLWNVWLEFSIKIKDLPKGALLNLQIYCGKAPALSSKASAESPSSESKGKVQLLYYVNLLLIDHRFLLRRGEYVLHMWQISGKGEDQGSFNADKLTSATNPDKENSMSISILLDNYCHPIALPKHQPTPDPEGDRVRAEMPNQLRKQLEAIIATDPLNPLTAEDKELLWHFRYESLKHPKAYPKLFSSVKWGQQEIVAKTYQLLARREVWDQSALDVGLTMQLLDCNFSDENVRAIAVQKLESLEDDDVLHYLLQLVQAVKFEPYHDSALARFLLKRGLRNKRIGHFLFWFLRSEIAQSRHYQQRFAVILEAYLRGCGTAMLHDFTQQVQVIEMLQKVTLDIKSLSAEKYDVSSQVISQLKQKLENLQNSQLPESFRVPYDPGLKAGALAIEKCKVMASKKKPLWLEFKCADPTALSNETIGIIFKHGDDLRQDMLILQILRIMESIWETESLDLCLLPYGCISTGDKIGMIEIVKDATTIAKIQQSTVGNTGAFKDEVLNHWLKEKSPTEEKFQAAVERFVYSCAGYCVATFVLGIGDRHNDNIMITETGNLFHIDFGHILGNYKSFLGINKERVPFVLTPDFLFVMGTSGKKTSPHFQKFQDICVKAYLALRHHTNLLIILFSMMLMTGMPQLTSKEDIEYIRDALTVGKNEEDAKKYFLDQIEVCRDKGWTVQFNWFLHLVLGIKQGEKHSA
RECORDED METRIC: IC50 (nM)
# unit: nM | format: bare number

Exercise: Identify the reported IC50 for the following entry. `CCC(=O)N1CC[C@H](Nc2ncnc3c2CN(c2cnc(OC)c(C(F)(F)F)c2)CC3)C1`
Solution: 2.23

Cited source for all entries: ChEMBL document CHEMBL6071132
